Recorded values, source ChEMBL document CHEMBL1681682.

# reported half-life; entries follow
- measurement_notes: Stability of the compound assessed as half life in 1M sodium acetate buffer of pH 4.5 at 37 degC
- Format: physicochemical
Please don't drop the unit; write it after the number.

{"molecule": "COC(=O)[C@H](CCCCNC(=O)Cc1ccc(N=C2C(=O)N(Cc3ccc(OC)cc3)c3c(Br)cc(Br)cc32)cc1)NC(C)=O (mixture of isomers)", "half-life": "23 min"}

// field: half-life; key: COC(=O)[C@H](CCCCNC(=O)Cc1cccc(N=C2C(=O)N(Cc3ccc(OC)cc3)c3c(Br)cc(Br)cc32)c1)NC(C)=O (mixture of isomers) ; value = 33 min
